Test system: OVCAR-3
assayProcedure: NCI tumour cell line growth inhibition, 48 h
Calls of active or inactive are those of the source. No stated cut-off is given here; in the data, active = GI50 up to about 1.1 µM and inactive = higher.
Documented GI50 across a set of compounds

Cn1c(=O)c2c(nc3[nH]c(=O)c(Br)cn32)n(C)c1=O yielded GI50 of > 100 µM (inactive)

COc1cc2c(cc1OC)C(Cc1ccc(Oc3cc(CC4c5cc(OC)c(OC)cc5CCN4C)ccc3O)cc1)N(C)CC2 (stereo not given) yielded GI50 of 19.5 µM (inactive)

COc1ccc(/C=N/NC(=O)NCCNCCO)cc1 yielded GI50 of > 100 µM (inactive)

CC1=NN(c2ccc(S(=O)(=O)O)cc2)C2(C1)SCC(=O)N2c1nc2ccccc2s1 (stereo not given) yielded GI50 of > 100 µM (inactive)

COC(=O)/C=C/C(=O)Nc1cc(Cl)c(Cl)cc1CC(=O)N(C)[C@H]1CCCC[C@@H]1N1CCCC1 yielded GI50 of 3.27 µM (inactive)

CC(=O)[C@@]1(O)CC[C@H]2[C@@H]3C[C@H](C)C4=CC(=O)CC[C@]4(C)[C@H]3[C@@H](O)C[C@@]21C yielded GI50 of > 100 µM (inactive)

CC(=O)Nc1ccc(CNc2cc(=O)n(C)c(=O)[nH]2)cc1 yielded GI50 of > 100 µM (inactive)

Cc1cn2cc(-c3ccncc3)nc2s1 yielded GI50 of > 100 µM (inactive)

O=C1N(Cl)C(=O)C(c2ccc(Cl)cc2)(c2ccc(Cl)cc2)N1Cl yielded GI50 of > 100 µM (inactive)

O=[N+]([O-])c1oc2ccc3ccccc3c2c1CCO yielded GI50 of 12.6 µM (inactive)

CC(C)CC(NC(=O)C(Cc1ccccc1)NC(=O)[C@H]1CC[C@H](NC(=O)C(Cc2ccc(OC(C)(C)C)cc2)NC(=O)OC(C)(C)C)C1)C(N)=O (stereo not given in full) yielded GI50 of 25.9 µM (inactive)

CC(=O)c1c(O)nnc(-c2ccc(Cl)cc2)c1-c1ccc(Cl)cc1 yielded GI50 of 25.1 µM (inactive)

CCOC(=O)C1C2C1C1C(C(=O)OCC)C21 (stereo not given) yielded GI50 of > 100 µM (inactive)

Cn1c(=O)cc(/N=N\c2ccc(Cl)c(Cl)c2)[nH]c1=O yielded GI50 of 18.7 µM (inactive)

---

System: EKVX
assayProcedure: NCI tumour cell line growth inhibition, 48 h
Active and inactive are the calls of the source. Cut-off read from the data, not from the text of the source: active = GI50 up to about 1.1 µM and inactive = higher.
Documented GI50 across a set of compounds

Reference set, count: 5
- COC1OC2=CCC3C(=O)NC(=O)C3C2[C@H](OCc2ccccc2)C1OCc1ccccc1 (some centres undefined): 1.85 µM (inactive)
- Cc1ccc(OCC2OC(n3cnc4nc(Nc5ccc(Cl)c(Cl)c5)nc(Cl)c43)CC2Oc2ccc(C)cc2)cc1 (centres undefined): 53.7 µM (inactive)
- Cc1cc(S(=O)(=O)Nc2nc(Nc3ccc(Cl)cc3)n[nH]2)c(S)cc1Cl: > 100 µM (inactive)
- O=C1CSC(/C(=C\c2ccc(Cl)cc2)c2nc3ccccc3[nH]2)=N1: 17 µM (inactive)
- CCOC(=O)C12CCSC1C1(C#N)C(C#N)=CC2(N=P(c2ccccc2)(c2ccccc2)c2ccccc2)n2c(=O)n(-c3ccccc3)c(=O)n21 (centres undefined): 82.2 µM (inactive)

Cc1ncc([N+](=O)[O-])n1CCNS(=O)(=O)CCCn1ccnc1[N+](=O)[O-] yielded GI50 of > 100 µM (inactive)

O=C(O)CNC(=O)C(CSC(=O)OCC1c2ccccc2-c2ccccc21)NC(=O)CCC(NC(=O)OCC1c2ccccc2-c2ccccc21)C(=O)O (centres undefined) yielded GI50 of 17.8 µM (inactive)

O=S1(=O)OCCOS(=O)(=O)C1(I)I yielded GI50 of 27.5 µM (inactive)

CC(=O)N[C@@H](Cc1ccc(O)cn1)C(=O)NCc1ccc2c(c1)OCO2 yielded GI50 of > 100 µM (inactive)

O=C(c1ccccc1)c1ccc2[nH]c(-c3c(Cl)c(Cl)c(Cl)c(Cl)c3C(=O)N/N=C\C=C\c3ccccc3)nc2c1 yielded GI50 of 40.7 µM (inactive)

O=C1N/C(=N/N=C/C(O)C(O)C(O)C(O)CO)N/C1=C\c1c[nH]c2ccccc12 (centres undefined) yielded GI50 of 34.6 µM (inactive)

COC(=O)Cc1c2n(c3ccccc13)C(=O)N1c3ccccc3C(CC(=O)OC)C21 (centres undefined) yielded GI50 of 45.3 µM (inactive)

COc1c(CC(=O)c2ccccc2)c2ccccc2n1C(C)=O yielded GI50 of 35.6 µM (inactive)
